Just for reference, patent US8609708B2 is where these values come from.

Assay: in vitro
Settings: human, microsomes, pH 7.4
Test readout: half-life (min)
Supply the numeric figure in min, leaving out any unit text.

So for `NCc1ccc(-c2cccnc2)s1` , the logged half-life turned out to be 39

###

Assay: Mouse liver microsome stability assay
Conditions: mouse, mouse liver microsomes, pH 7.4
Assign half-life at 40 μM to each entry below.
Report the value in h with no unit label.

Item: `Cn1cnc(-c2cccnc2)c1` | half-life at 40 μM: 8.02

Entry under test: `CN(C)Cc1ccc(-c2cccnc2)s1` . Its half-life at 40 μM was 5.72

response.value for `NCc1ccc(-c2cccnc2)o1` (field: half-life at 40 μM) = 0.617

Given item `Cc1ccsc1-c1cccnc1` , the value recorded as its half-life at 40 μM is 0.683
